Hey, just so you know, these numbers are from PubChem BioAssay (Tox21).

assay: qHTS assay for small molecule disruptors of the mitochondrial membrane potential - cell viability (AID 720634); conditions: HepG2 viability, ATP luminescence (CellTiter-Glo), 1 h; series mostly up to 83.2 µM; note: nearly all actives have a fitted effect of over 20% in size; note: potency is the fitted concentration of half-maximal effect
Results filed as inconclusive are left out. Activity calls are given as the source filed them. Calls come from the whole dose curve.
Experimental Endpoint: Potency

CCCCCCCC/C=C\CCCCCCCC(=O)OCC; inactive
Nc1ccccc1S(=O)(=O)c1ccccc1; inactive
Cc1ccccc1S(=O)(=O)O; inactive
COc1cc(Cl)c(OC)cc1N; inactive
NC(=O)C(c1ccccc1)(c1ccccc1)[C@@H]1CCN(CCc2ccc3c(c2)CCO3)C1; inactive

[Q] Consider the compound C=C(C)C(=O)OCC and give its measured Potency.
[A] inactive

[Q] // query: COc1ccc(C)cc1[N+](=O)[O-]
[A] inactive

[Q] // query: CCCCCCCCCCCCCCCCCCOS(=O)(=O)O
[A] inactive

[Q] // query: Nc1cccc([N+](=O)[O-])c1
[A] inactive

[Q] // query: C[C@@H]1C[C@H]2O[C@@]3(O[C@@H]2C(C)(C)O)[C@H](O)[C@@]2(C)[C@@H]4CC[C@H]5C(C)(C)[C@@H](O[C@@H]6OC[C@@H](O)[C@H](O)[C@H]6O)CC[C@@]56C[C@@]46CC[C@]2(C)[C@@H]13
[A] inactive

[Q] // query: C=CC(=O)OCCOCCOC(=O)C=C
[A] inactive

[Q] // query: COc1ccc(S(=O)(=O)N2C(=O)[C@@](c3ccccc3OC)(N3C[C@H](O)C[C@H]3C(=O)N(C)C)c3cc(Cl)ccc32)c(OC)c1
[A] inactive

[Q] // query: COS(=O)(=O)C(F)(F)F
[A] inactive

[Q] // query: CC1CCC(=O)C1=O (stereo unspecified)
[A] inactive

[Q] // query: CCCCC
[A] inactive

[Q] // query: Clc1ccc2c(c1)CCc1cccnc1C2=C1CCNCC1
[A] inactive

[Q] // query: COCC(C)OC(C)=O (stereo unspecified)
[A] inactive

[Q] // query: C#Cc1cccc(Nc2ncnc3cc(OCCOC)c(OCCOC)cc23)c1
[A] inactive

[Q] // query: CCC(Cl)CCC(Cl)C(Cl)CC(Cl)C(Cl)C(Cl)CCl (stereo unspecified)
[A] inactive

[Q] // query: O=C(c1ccc(F)cc1)C1CCN(CCn2c(=S)[nH]c3ccccc3c2=O)CC1
[A] inactive

[Q] // query: O=C(Cl)c1cc(C(=O)Cl)cc(C(=O)Cl)c1
[A] inactive

[Q] // query: C1CCCNCCC1
[A] inactive

[Q] // query: Brc1c2ccccc2cc2ccccc12
[A] 55 µM (active)

----------
biological target: Peroxisome proliferator-activated receptor delta (Homo sapiens); test: qHTS assay to identify small molecule agonists of the peroxisome proliferator-activated receptor delta (PPARd) signaling pathway (AID 743212); settings: HEK293H PPARd-UAS-bla, beta-lactamase FRET ratio, 17 h; series mostly up to 62.6 µM;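 note: HEK293H cells with PPARd UAS beta-lactamase reporter GeneBLAzer system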
Results filed as inconclusive are left out. Calls of active or inactive are those of the source. Calls follow the shape of the full dose curve.
Valid outcomes are listed here; reply with one: label 1 = active, label 0 = inactive

[Q] Hi team, can someone confirm the assay call for COC(C)(C)CCO ?
[A] label 0

[Q] // query: COc1ccc(C(=O)c2ccc(OC)cc2O)c(O)c1
[A] label 0

[Q] // query: C[C@@H](c1ncncc1F)C(O)(Cn1cncn1)c1ccc(F)cc1F (stereo partly drawn)
[A] label 0

[Q] // query: COC(C)OC
[A] label 0

[Q] // query: CC/C=C\CCOC(=O)CC
[A] label 0

[Q] // query: O=C(O)c1ccc(S(=O)(=O)O)cc1C(=O)O
[A] label 0

[Q] // query: CCCCCCCCCCCC(=O)OC[C@@H](O)[C@H]1OC[C@H](OCCO)[C@H]1OCCO
[A] label 0

[Q] // query: Brc1c2ccccc2c(Br)c2ccccc12
[A] label 1

[Q] // query: C[Si](C)(CCCN)O[Si](C)(C)CCCN
[A] label 0

[Q] // query: COc1ccc(-c2nc3ccc(C4=NNC(=O)CC4C)cc3[nH]2)cc1 (stereo not drawn)
[A] label 0

[Q] // query: C=C(C)C(=O)OCCOCC
[A] label 0

[Q] // query: O=C(O)C1(C(=O)O)CCC1.[NH2-].[NH2-].[Pt+2]
[A] label 0

[Q] // query: NCC(=O)O
[A] label 0

[Q] // query: CCOC(=O)C(=O)CCc1ccccc1
[A] label 0

[Q] // query: O=C1OC(CN2CCOCC2)CN1/N=C/c1ccc([N+](=O)[O-])o1 (stereo not drawn)
[A] label 0

[Q] // query: CCCCCCCCCCCc1ccccc1
[A] label 0

[Q] // query: CC(C)Nc1ccc(NC(C)C)c2c1C(=O)c1ccccc1C2=O
[A] label 0

[Q] // query: CC1CCC(=O)C1=O (stereo not drawn)
[A] label 0

[Q] // query: CCCCCCCCCc1ccc(OCCOCCO)cc1
[A] label 0

[Q] // query: C1CCCNCCC1
[A] label 0

[Q] // query: CCN(CC)CCNC(=O)c1cc(Br)c(N)cc1OC
[A] label 0

[Q] // query: CC(C)OC(=O)C(C)N(C(=O)c1ccccc1)c1ccc(F)c(Cl)c1 (stereo not drawn)
[A] label 0

[Q] // query: CN(C)CCCN1c2ccccc2Sc2ccccc21
[A] label 0

[Q] // query: CNC(=O)CN(CCN(CCN(CC(=O)[O-])CC(=O)NC)CC(=O)[O-])CC(=O)[O-].O.[Gd+3]
[A] label 0

[Q] // query: CN1CCC(=C2c3ccccc3Sc3ccccc32)CC1
[A] label 0

[Q] // query: CC(C)(C)OCC1CO1 (stereo not drawn)
[A] label 0

[Q] // query: c1cc(CCCc2ccncc2)ccn1
[A] label 0

[Q] // query: CC(CC=O)c1ccccc1 (stereo not drawn)
[A] label 0

----------
target: Cytochrome P450 3A4 (Homo sapiens) (UniProt P08684); assay: Cytochrome P450 Family 3 Subfamily A Member 4 (CYP3A4) small molecule antagonists: luciferase reporter qHTS assay (AID 1671201); details: P450-Glo CYP3A4 enzyme, luciferin luminescence, 1 h; series mostly up to 115 µM; note: nearly all actives have a fitted effect of over 50% in size
Sequence (P08684 whole entry, looked up): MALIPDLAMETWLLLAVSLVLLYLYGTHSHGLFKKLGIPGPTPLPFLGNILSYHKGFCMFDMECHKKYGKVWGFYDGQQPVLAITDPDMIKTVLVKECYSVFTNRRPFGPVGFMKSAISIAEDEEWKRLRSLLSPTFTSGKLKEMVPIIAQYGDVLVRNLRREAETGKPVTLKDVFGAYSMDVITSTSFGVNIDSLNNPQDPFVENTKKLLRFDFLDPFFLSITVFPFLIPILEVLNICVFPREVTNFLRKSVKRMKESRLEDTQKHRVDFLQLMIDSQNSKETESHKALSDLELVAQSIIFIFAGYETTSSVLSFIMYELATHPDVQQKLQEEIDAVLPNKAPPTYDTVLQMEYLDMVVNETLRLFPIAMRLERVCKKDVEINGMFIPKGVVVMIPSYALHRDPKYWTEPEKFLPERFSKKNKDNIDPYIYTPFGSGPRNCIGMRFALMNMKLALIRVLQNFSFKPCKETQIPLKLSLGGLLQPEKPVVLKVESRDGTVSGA
Inconclusive results are not listed. Active and inactive are the calls of the source. Calls come from the whole dose curve; as a rule, active = well fitted inhibition curve with a large enough effect in the repeat runs; inconclusive = weak or mixed curves; inactive = no such curve, though single readings can be large or run the other way.
Valid outcomes are listed here; reply with one: active, inactive

[Q] Hi team, can someone confirm the assay call for Cc1oc(-c2ccccc2)nc1CCOc1cccc2c1ccn2CCC(=O)O ?
[A] inactive

[Q] // query: CCN(CC)CCNc1ccc(CNC=O)c2sc3ccc(OC)cc3c(=O)c12
[A] active

[Q] // query: CN1C[C@H]2c3ccccc3Oc3ccc(Cl)cc3[C@@H]2C1
[A] inactive

[Q] // query: CCCCCCCCCCO[C@@H]1O[C@H](CO)[C@@H](O)[C@H](O)[C@H]1O
[A] inactive

[Q] // query: O=S(=O)(Oc1ccc(Cl)cc1)c1ccccc1
[A] inactive

[Q] // query: O=C(O)c1ccc(-n2nc(-c3ccccc3O)nc2-c2ccccc2O)cc1
[A] inactive

[Q] // query: CCC(C)(C)CC
[A] inactive

[Q] // query: NCC(=O)CCC(=O)O
[A] inactive

[Q] // query: C[Si](C)(CCCN)O[Si](C)(C)CCCN
[A] active

[Q] // query: CC1CCC(=O)C1=O (stereo unspecified)
[A] inactive

[Q] // query: O=C(OCCc1ccccc1)c1ccccc1
[A] inactive

[Q] // query: C[N+](C)(C)CCOC(=O)CCC(=O)OCC[N+](C)(C)C
[A] inactive

[Q] // query: CCCCCCCCCCCc1ccccc1
[A] inactive

[Q] // query: Cc1ncc(CO)c(C=O)c1O
[A] inactive

[Q] // query: NC(=O)C(c1ccccc1)(c1ccccc1)[C@@H]1CCN(CCc2ccc3c(c2)CCO3)C1
[A] inactive

[Q] // query: CN(C)CCN(Cc1ccsc1)c1ccccn1
[A] inactive

[Q] // query: O=[N+]([O-])c1ccc(NCCO)c(OCCO)c1
[A] inactive

[Q] // query: CCCCCCCCCCCCCCCCOS(=O)(=O)O
[A] inactive

[Q] // query: CCN(CC)c1ccc2c(-c3ccccc3C(=O)O)c3ccc(=[N+](CC)CC)cc-3oc2c1
[A] active

[Q] // query: Nc1cccc([N+](=O)[O-])c1
[A] inactive

[Q] // query: Cc1ccccc1S(=O)(=O)O
[A] inactive

[Q] // query: CNC(=O)CN(CCN(CCN(CC(=O)[O-])CC(=O)NC)CC(=O)[O-])CC(=O)[O-].O.[Gd+3]
[A] inactive

[Q] // query: CCOC(=O)NCCOc1ccc(Oc2ccccc2)cc1
[A] inactive

[Q] // query: O=C1CCCCCCCCCCCC(=O)OCCO1
[A] active

[Q] // query: CCCCCCCCO[C@@H]1O[C@H](CO)[C@@H](O)[C@H](O)[C@H]1O
[A] inactive

[Q] // query: C=C(C)C(=O)OCCO
[A] inactive
